# Target Desc: TEAD3 TAZ (amino acids 13-57) (Homo sapiens)
# Sequence (Q99594 173-435 limits assumed): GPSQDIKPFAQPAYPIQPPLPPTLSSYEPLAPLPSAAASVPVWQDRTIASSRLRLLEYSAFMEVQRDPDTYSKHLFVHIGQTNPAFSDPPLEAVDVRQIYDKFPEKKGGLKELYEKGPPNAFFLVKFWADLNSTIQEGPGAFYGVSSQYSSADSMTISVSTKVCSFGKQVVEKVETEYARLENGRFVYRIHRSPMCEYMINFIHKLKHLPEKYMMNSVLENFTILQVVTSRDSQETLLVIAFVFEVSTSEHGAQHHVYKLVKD
# Test Details: TEAD3-TAZ HTRF (TR-FRET) protein-protein interaction assay
# Assay type: binding
# Conditions Used: TEAD3-TAZ HTRF, TR-FRET 665 nm/615 nm; read-out: TEAD3 TAZ HTRF combined: EC50
pEC50: −log10 of the molar value.
Attribute Measured: pEC50

Previously resolved entries follow.
1. O=C(c1c(-c2ccccn2)nn2c(=O)cc(-c3ccc(C4CCCCC4)cc3)[nH]c12)N1CC(CF)C1	7.10
2. CN(C)C(=O)c1nn2c(=O)cc(-c3cc(F)c(C4CCCCC4)c(F)c3)[nH]c2c1C(=O)N1CC(CF)C1	6.72
3. O=C(c1c(-c2cnccn2)nn2c(=O)cc(-c3ccc(C4CCCCC4)c(F)c3)[nH]c12)N1CC(CF)C1	6.96
4. CC(C)(C)c1ccc(COc2cc(=O)n3nc(-c4cnccn4)c(C(=O)N4CC(CF)C4)c3[nH]2)cc1	7.05
5. Cc1ccnc(-c2nn3c(=O)cc(-c4ccc(C5CCCCC5)cc4)[nH]c3c2C(=O)N2CC(CF)C2)c1C	6.77
6. Cc1cnc(-c2nn3c(=O)cc(-c4ccc(C5CCCCC5)cc4)[nH]c3c2C(=O)N2CC(CF)C2)cn1	6.82

P. O=C(c1c(-c2cnco2)nn2c(=O)cc(-c3ccc(C4CCCCC4)cc3)[nH]c12)N1CC(CF)C1
Q. Cc1nccnc1-c1nn2c(=O)cc(-c3ccc(C4CCCCC4)cc3)[nH]c2c1C(=O)N1C[C@H](CF)[C@@H]1C (single isomer, unassigned) [Isomer B, Example 41]
R. Cc1nccnc1-c1nn2c(=O)cc(-c3ccc(C4CCCCC4)cc3)[nH]c2c1C(=O)N1C[C@@H](CF)[C@H]1C (single isomer, unassigned) [Isomer A, Example 41]
S. C[C@H]1[C@@H](CF)CN1C(=O)c1c(-c2cnccn2)nn2c(=O)cc(-c3ccc(CC4CCCC4)cc3)[nH]c12 (single isomer, unassigned) [Isomer A, Example 44]
Please list the entries, largest pEC50 first. Rank them, then answer with their labels in that order.
P, Q, R, S
(P: 7.22, Q: 6.85, R: 6.16, S: 5.92)

###

# Target Desc: TEAD4 YAP50-100 (Homo sapiens)
# Sequence (Q15561 217-434 limits assumed): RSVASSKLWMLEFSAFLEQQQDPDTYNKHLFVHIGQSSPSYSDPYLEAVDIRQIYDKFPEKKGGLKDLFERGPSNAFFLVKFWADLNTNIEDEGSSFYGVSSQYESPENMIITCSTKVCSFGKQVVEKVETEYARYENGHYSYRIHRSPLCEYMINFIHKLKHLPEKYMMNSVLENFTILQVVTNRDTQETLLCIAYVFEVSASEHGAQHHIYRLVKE
# Test Details: TEAD4-YAP HTRF (TR-FRET) protein-protein interaction assay
# Type: binding
# Conditions Used: TEAD4, YAP peptide 50-100, HTRF
Attribute Measured: TEAD4 YAP50-100 HTRF combined: Max % Inhibition (%)

Would you please look over these solved cases?
1. Cc1nccnc1-c1nn2c(=O)cc(-c3ccc(OC(c4ccccc4)C(F)(F)F)cc3)[nH]c2c1C(=O)N1C[C@H](CF)[C@@H]1C (single isomer, unassigned) [Final product obtained using Enantiomer B from Step 1, Example 56]	59.5
2. CCCCCCCCCc1cc(=O)n2nc(-c3nccnc3C)c(C(=O)N3C[C@H](CF)[C@@H]3C)c2[nH]1 [Compound 71]	48.5
3. Cc1nccnc1-c1nn2c(=O)cc(-c3ccc(C4CCC(F)(F)CC4)cc3)[nH]c2c1C(=O)N1CC(CF)C1 [Compound 55]	44.5

P. C[C@@H]1[C@H](CF)CN1C(=O)c1c(-c2ncccn2)nn2c(=O)cc(-c3ccc(C4CCCCC4)cc3)[nH]c12 (single isomer, unassigned) [Isomer A, Example 40]
Q. CCn1cnc(-c2nn3c(=O)cc(-c4ccc(C5CCCCC5)cc4)[nH]c3c2C(=O)N2CC(CF)C2)c1 [Compound 31]
Of the pair P and Q , name the member with the lesser recorded TEAD4 YAP50-100 HTRF combined: Max % Inhibition. Indicate which entry you chose by stating its label.
Q
(Q: 36.0%, P: 53.5%)

I. O=C(c1c(-c2nccnc2C(F)(F)F)nn2c(=O)cc(-c3ccc(C4CCCCC4)cc3)[nH]c12)N1CC(CF)C1 [Compound 7]
II. O=C(c1c(-c2cnco2)nn2c(=O)cc(-c3ccc(C4CCCCC4)cc3)[nH]c12)N1CC(CF)C1 [Compound 39]
Compare I and II and name the one whose reported TEAD4 YAP50-100 HTRF combined: Max % Inhibition is smaller. Identify your pick by its label.
II

###

# Target Desc: TEAD3 TAZ (amino acids 13-57) (Homo sapiens)
# Test Details: TEAD3-TAZ HTRF (TR-FRET) protein-protein interaction assay
# Format: binding
# Conditions Used: TEAD3, TAZ peptide, HTRF
Attribute Measured: TEAD3 TAZ HTRF combined: Max % Inhibition (%)

1) Cc1ccnc(-c2nn3c(=O)cc(-c4ccc(C5CCCCC5)cc4)[nH]c3c2C(=O)N2CC(CF)C2)c1C	57.5

a. C[C@@H]1[C@H](CF)CN1C(=O)c1c(-c2ncccn2)nn2c(=O)cc(-c3ccc(C4CCCCC4)cc3)[nH]c12 (single isomer, unassigned) [Isomer A, Example 40]
b. CN(C)C(=O)c1nn2c(=O)cc(-c3ccc(CC4CCCC4)cc3)[nH]c2c1C(=O)N1CC(CF)C1
I'm curious whether a or b has the smaller TEAD3 TAZ HTRF combined: Max % Inhibition number. Which is it? Give the label under which the chosen entry appears.
b

###

# Target Desc: TEAD2 YAP50-100 (Homo sapiens)
# Sequence (Q15562 217-447): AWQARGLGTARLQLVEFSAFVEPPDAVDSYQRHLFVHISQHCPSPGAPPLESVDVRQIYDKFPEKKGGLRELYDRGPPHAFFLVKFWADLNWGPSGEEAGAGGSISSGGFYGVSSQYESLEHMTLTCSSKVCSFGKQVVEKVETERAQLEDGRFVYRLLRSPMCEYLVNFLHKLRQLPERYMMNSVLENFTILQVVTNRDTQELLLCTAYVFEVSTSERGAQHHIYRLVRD
# Test Details: TEAD2-YAP HTRF (TR-FRET) protein-protein interaction assay
# Type: binding
# Conditions Used: TEAD2, YAP peptide 50-100, HTRF
Attribute Measured: TEAD2 YAP50-100 HTRF combined: Max % Inhibition (%)

1. CC1CCN1C(=O)c1nn2c(=O)cc(-c3ccc(C4CCCCC4)cc3)[nH]c2c1C(=O)N1CC(CF)C1 (single isomer, unassigned) [Enantiomer B, Example 33]	72.0
2. O=C(c1c(-c2cnccn2)nn2c(=O)cc(-c3ccc(C4CCCCC4)c(F)c3)[nH]c12)N1CC(CF)C1	55.5
3. Cc1nccnc1-c1nn2c(=O)cc(-c3ccc(C4CCCCC4)cc3)[nH]c2c1C(=O)N1C[C@H](CF)[C@@H]1C (single isomer, unassigned) [Isomer B, Example 41]	77.8
4. O=C(c1c(-c2ncccn2)nn2c(=O)cc(-c3ccc(C4(C5CCCC5)CC4)cc3)[nH]c12)N1CC(CF)C1	51.0
5. Cn1cnc(-c2nn3c(=O)cc(-c4ccc(C5CCCCC5)cc4)[nH]c3c2C(=O)N2CC(CF)C2)c1	61.5
6. O=C(c1c(-c2nccnc2C(F)(F)F)nn2c(=O)cc(-c3ccc(C4CCCCC4)cc3)[nH]c12)N1CC(CF)C1	61.0
7. CC(C)c1ccnc(-c2nn3c(=O)cc(-c4ccc(C5CCCCC5)cc4)[nH]c3c2C(=O)N2CC(CF)C2)n1	67.0
8. Cc1ccnc(-c2nn3c(=O)cc(-c4ccc(C5CCCCC5)cc4)[nH]c3c2C(=O)N2CC(CF)C2)c1	58.5
9. C[C@H]1[C@@H](CF)CN1C(=O)c1c(-c2cnccn2)nn2c(=O)cc(-c3ccc(CC4CCCC4)cc3)[nH]c12 (single isomer, unassigned) [Isomer A, Example 44]	52.0
10. C[C@@H]1[C@H](CF)CN1C(=O)c1c(C(=O)N(C)C)nn2c(=O)cc(-c3ccc(C4CCCCC4)cc3)[nH]c12	69.5
11. Cc1nccnc1-c1nn2c(=O)cc(-c3ccc(C(F)(F)C4CCCC4)cc3)[nH]c2c1C(=O)N1CC(CF)C1	61.0
12. CCN(C)C(=O)c1nn2c(=O)cc(-c3ccc(C4CCCCC4)cc3)[nH]c2c1C(=O)N1CC(CF)C1	71.5
13. CCc1ccnc(-c2nn3c(=O)cc(-c4ccc(C5CCCCC5)cc4)[nH]c3c2C(=O)N2CC(CF)C2)n1	69.0

###

# Target Desc: TEAD4 YAP50-100 (Homo sapiens)
# Test Details: TEAD4-YAP HTRF (TR-FRET) protein-protein interaction assay
# Conditions Used: TEAD4, YAP peptide 50-100, HTRF; read-out: TEAD4 YAP50-100 HTRF combined: EC50
Attribute Measured: EC50 (nM)

1) C[C@@H](CO)c1nn2c(=O)cc(-c3ccc(C4CCCCC4)cc3)[nH]c2c1C(=O)N1CC(CF)C1 (single isomer, unassigned) [Enantiomer B, Example 55]	200
2) O=C(c1c(-c2cnccn2)nn2c(=O)cc(-c3ccc(C4CCCCC4)c(F)c3)[nH]c12)N1CC(CF)C1 [Compound 23]	50
3) C[C@@H]1[C@H](CF)CN1C(=O)c1c(-c2ncccn2)nn2c(=O)cc(-c3ccc(C4CCCCC4)cc3)[nH]c12 (single isomer, unassigned) [Isomer A, Example 40]	30

I. C[C@@H]1[C@H](CF)CN1C(=O)c1c(-c2cnccn2)nn2c(=O)cc(-c3ccc(C4CCCCC4)cc3)[nH]c12 (single isomer, unassigned) [Isomer B, Example 39]
II. C[C@H]1[C@@H](CF)CN1C(=O)c1c(-c2ncccn2)nn2c(=O)cc(-c3ccc(C4CCCCC4)cc3)[nH]c12 (single isomer, unassigned) [Isomer B, Example 40]
Between the two listed entries I and II , which has its EC50 at the higher number? Please indicate the selected item by its label.
I
(I: 6450 nM, II: 2000 nM)
